These measurements were taken from patent US20250326839A1.

Below: a set of entries, each annotated with reported Binding Signal.
Target: T1, human TREM2 (human, UniProt Q9NZC2 19-174, limits assumed)
T1 construct: also called triggering receptor expressed on myeloid cells 2
T1 sequence: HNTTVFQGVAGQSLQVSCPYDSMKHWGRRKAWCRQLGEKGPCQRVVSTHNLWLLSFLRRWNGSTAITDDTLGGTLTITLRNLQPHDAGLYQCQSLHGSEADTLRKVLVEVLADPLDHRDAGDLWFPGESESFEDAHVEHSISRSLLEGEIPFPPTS
Experiment: 2nd screen, 10 nM

binder	Binding Signal
V29 (antibody, V domains shown, also called 6E7 variant V29) VH: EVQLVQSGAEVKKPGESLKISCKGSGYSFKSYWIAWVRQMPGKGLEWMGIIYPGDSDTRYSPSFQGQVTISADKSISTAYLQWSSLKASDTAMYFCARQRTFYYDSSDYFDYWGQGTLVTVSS VL: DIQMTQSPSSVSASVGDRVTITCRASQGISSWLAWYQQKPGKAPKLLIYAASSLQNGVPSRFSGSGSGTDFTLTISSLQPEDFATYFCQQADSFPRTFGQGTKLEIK	1.67 fold over 6E7 parental antibody

Moving on to the next binder.
Task item: Fill in the blank: the reported Binding Signal of V38 (antibody, V domains shown, also called 6E7 variant V38) VH: EVQLVQSGAEVKKPGESLKISCKGSGYSFGSYWIAWVRQMPGKGLEWMGIIYPGDSDVRYSPSFQGQVTISADKSISTAYLQWSSLKASDTAMYFCARQRTFYYDSSDYFDYWGQGTLVTVSS VL: DIQMTQSPSSVSASVGDRVTITCRASQGISSWLAWYQQKPGKAPKLLIYAASSRQNGVPSRFSGSGSGTDFTLTISSLQPEDFATYFCQQADSHPRTFGQGTKLEIK is ____.
Reply: 4.36 fold over 6E7 parental antibody
